system: Human papillomavirus type 1a protein E7 (residues 44-93); test: HPV1a E7 fragment binders on microarrays, primary screen, biochemical, small-molecule microarray, residues 44-93, 635 nm fluorescence (AID 1108); details: small-molecule microarray binding, fluorescence 635 nm; higher = more signal;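 further: E7 fragment applied at 1 µg/mL in TBST for 1 h at 4 C; score combines spot fluorescence with its signal to noise ratio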
Quick rule for you: composite z-score at 1 or higher means y, lower means n.

{"COMPOUND": "O=C1C2C=CC(C(O)c3cccc4ccccc34)N(Nc3ccccc3F)C2C(=O)N1c1ccccc1 (centres undefined)", "ASSIGNED CLASS": "y"}
{"COMPOUND": "CCCC=C(CCC)[C@@H](NC(=O)c1cccs1)c1ccc(C(F)(F)F)cc1", "ASSIGNED CLASS": "y"}
{"COMPOUND": "O=C(CS)NCCCCCCNC(=O)[C@@H]1C[C@@H]2C(=O)N[C@@H](Cc3ccccc3)C(=O)N2[C@@H]1c1cccc(OCCO)c1", "ASSIGNED CLASS": "y"}
{"COMPOUND": "COC(=O)c1c(CC[C@@H](CO)NC(=O)NCCn2cc(C3(O)CCCC3)nn2)oc(C(C)=O)c1C(=O)OC", "ASSIGNED CLASS": "n"}
{"COMPOUND": "COC(=O)[C@@]1(CCS(=O)(=O)c2ccccc2)N=C(c2ccc(OCCCO)cc2)O[C@H]1c1ccccc1CN=[N+]=[N-]", "ASSIGNED CLASS": "n"}
{"COMPOUND": "CCCC[C@@H]1C[C@H]1[C@@H](NC(=O)c1ccco1)c1ccc(-c2ccccc2)cc1", "ASSIGNED CLASS": "n"}
{"COMPOUND": "CO[C@H]1O[C@H](CO)[C@@H](OC(=O)Nc2ccccc2)[C@H](OC(=O)Nc2ccccc2)[C@@H]1OC(=O)Nc1ccccc1", "ASSIGNED CLASS": "y"}
{"COMPOUND": "CC[C@@H]1C=C(C(=O)O)[C@H](c2ccc(Br)cc2)N1S(=O)(=O)c1ccc(C)cc1", "ASSIGNED CLASS": "n"}
{"COMPOUND": "COCCOC(=O)N1C(=O)[C@@]2(c3cc(C#Cc4ccc(OC)cc4)ccc31)[C@H](c1ccccc1OCCO)N1[C@H](c3ccccc3)[C@H](c3ccccc3)OC(=O)[C@H]1[C@@H]2C(=O)NC[C@H](O)c1ccccc1", "ASSIGNED CLASS": "y"}

###

molecular target: NADPH oxidase 2 (Homo sapiens); assay: NOX2-dependent H2O2 signal modulators, primary screen, NOX inhibitor project, cell-based, HEK293-NOX2, PMA-stimulated, Amplex Red fluorescence (AID 1159); conditions: 45 min, higher = more signal, called active from +8 up or from −8 down; further: test concentration not given here
OBSERVATION TYPE: z-score

{"MOLECULE": "C=CCOC(=O)[C@H]1[C@@H]2C(=O)O[C@@H](c3ccccc3)[C@@H](c3ccccc3)N2[C@@H](c2ccc(OCCOC(=O)[C@H]3C[C@H]4C(=O)N[C@@H](CCCCNC(C)=O)C(=O)N4[C@H]3c3cccc(OCCO)c3)cc2)[C@]12C(=O)Nc1ccccc12", "NUMERIC VALUE": 2.19}
{"MOLECULE": "CN(C)CCCCCCNC(=O)[C@H]1C[C@H]2C(=O)N[C@@H](CCCCN)C(=O)N2[C@H]1c1cccc(OCCO)c1", "NUMERIC VALUE": 1.65}
{"MOLECULE": "O=C1O[C@H](c2ccccc2)[C@H](c2ccccc2)N2[C@H]1[C@@H](C(=O)N1CCCCCCC1)[C@]1(C(=O)Nc3ccc(C#CCCO)cc31)[C@H]2c1ccccc1OCCO", "NUMERIC VALUE": 1.31}
{"MOLECULE": "CC(C)C(CO)N1C(=O)[C@@H]2C3C(=O)OCCC/C=C\\[C@H]3OC23C=CCN(CCN2CCOCC2)C(=O)[C@@H]13 (stereo partly specified)", "NUMERIC VALUE": 1}
{"MOLECULE": "C=C(C(=O)CC[C@@H](OC(=O)c1cccnc1)c1ccccc1OCCO)C(C)C", "NUMERIC VALUE": -0.551}
{"MOLECULE": "COC(=O)[C@@]1(Cc2ccc(F)cc2)[C@H]2c3cc(C(=O)N4CCCC4)n(CCCNc4ncc(C(F)(F)F)cc4Cl)c3C[C@H]2CN1C(=O)c1ccccc1", "NUMERIC VALUE": -0.299}

###

molecular target: Calmodulin-1 (Homo sapiens) (UniProt P0DP23); assay: calcium-bound CALM1 binders on microarrays, profiling panel, artefact control for SMM control-protein annotation, biochemical, small-molecule microarray, Cy5-labelled CALM1, plus calcium (AID 1112); settings: Cy5-CALM1 binding fluorescence, higher = more signal;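 further: score merges spot fluorescence with signal to noise from triplicate slides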
# composite z-score listing for each entry below
OBSERVATION TYPE: composite z-score

{"MOLECULE": "COCC(=C=CC[C@@H](O)c1cccc(OCCO)c1)C[C@@H](O)c1ccccn1", "RESULT": -0.0023}
{"MOLECULE": "COC(=O)[C@@]1(CCS(=O)(=O)c2ccccc2)N=C(c2ccc(OCCCO)cc2)O[C@H]1c1ccccc1CN=[N+]=[N-]", "RESULT": 0.373}
{"MOLECULE": "CN(C)CCCCCCNC(=O)[C@H]1C[C@H]2C(=O)N3CCC[C@H]3C(=O)N2[C@H]1c1ccc(O)cc1", "RESULT": -2.33}
{"MOLECULE": "CCC(CC)C(O)C1C=CC2C(=O)NC(=O)C2N1Nc1ccc(Cl)cc1Cl (stereo not drawn)", "RESULT": 1.15}
{"MOLECULE": "[N-]=[N+]=Nc1ccccc1[C@@H]1OC(c2ccc(OCCCO)cc2)=N[C@]1(CCS(=O)(=O)c1ccccc1)C(N)=O", "RESULT": 0.629}
{"MOLECULE": "C=C(CCCC)/C(=C/C[C@H](OC(C)=O)c1ccccc1OCCO)c1cc(C(=O)OC)ccc1OC", "RESULT": -0.803}
{"MOLECULE": "COC(=O)[C@@]1(Cc2ccccc2)N=C(c2ccc(OCCCO)cc2)O[C@H]1c1ccccc1", "RESULT": -0.0316}
{"MOLECULE": "CC(C)[Si](C#Cc1ccc(Oc2ccccc2)cc1)(O[Si](C#Cc1ccc(Oc2ccccc2)cc1)(C(C)C)C(C)C)C(C)C", "RESULT": 0.307}

###

test: mitochondrial membrane potential change in A549 cells, profiling panel, cell-based, JC-1 fluorescence, basal, 24 h, 100 nL (AID 1138); settings: higher = more signal;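 further: A549 lung adenocarcinoma cells under basal conditions with no added stimulus; test concentration not given here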
Use -0.8 as the dividing line for z-score, with the line itself on the TRUE side and lower values as FALSE.

{"COMPOUND": "COc1cc2c(cc1OC)CN(C(=O)[C@@H]1[C@H]3C(=O)O[C@H](c4ccccc4)[C@H](c4ccccc4)N3[C@H](c3ccccc3OCCO)[C@@]13C(=O)Nc1ccc(C#CCCO)cc13)CC2", "ASSIGNED CLASS": "TRUE"}
{"COMPOUND": "CN1C(=O)C2C=CC(C(O)c3ccco3)N(Nc3ccccc3)C2C1=O (configuration not stated)", "ASSIGNED CLASS": "TRUE"}
{"COMPOUND": "CC(=O)NCCCC[C@@H]1NC(=O)[C@@H]2C[C@H](C(=O)NCCCCCNC(=O)CS)[C@H](c3cccc(OCCO)c3)N2C1=O", "ASSIGNED CLASS": "TRUE"}
{"COMPOUND": "CC(=O)n1cc(C(O)C2C=CC3C(=O)N(c4ccccc4)C(=O)C3N2Nc2ccc([N+](=O)[O-])cc2)c2ccccc21 (configuration not stated)", "ASSIGNED CLASS": "FALSE"}
{"COMPOUND": "C#C[C@H](O[Si](C#Cc1ccc(Oc2ccccc2)cc1)(C(C)C)C(C)C)c1ccccc1", "ASSIGNED CLASS": "FALSE"}
{"COMPOUND": "COC(=O)[C@@]1(Cc2ccc(F)cc2)[C@H]2c3cc(C(=O)N4CCCC4)n(Cc4ccc(S(C)(=O)=O)cc4)c3C[C@H]2CN1C(=O)c1ccccc1", "ASSIGNED CLASS": "TRUE"}

###

experiment: E. coli growth modulation, two-sided OD650, primary screen, E. coli filamentation project, strain DRC41, 24 h (AID 1093); settings: OD650, 24 h, higher = more signal, called active from +8 up or from −8 down;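 further: MC1000 strain lacking acrAB efflux and sulA so SOS filamentation is blocked; test concentration not given here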
Label NO if z-score falls below -0.2; label YES in every other case.

{"COMPOUND": "COCCOC(=O)N1C(=O)[C@@]2(c3cc(C#CCNC(N)=O)ccc31)[C@H](C(=O)Nc1nc3ccccc3s1)[C@H]1C(=O)O[C@H](c3ccccc3)[C@H](c3ccccc3)N1[C@@H]2c1ccc(OCCO)cc1", "ASSIGNED CLASS": "NO"}
{"COMPOUND": "O=C(c1ccccc1)N1C(=O)[C@]2(COC(c3ccc(OCCCO)cc3)=N2)Cc2ccccc21", "ASSIGNED CLASS": "YES"}
{"COMPOUND": "COC(=O)C(CC#Cc1ccc2c(c1)[C@]1(C(=O)N2)[C@H](C(=O)Nc2nc3ccccc3s2)[C@H]2C(=O)O[C@H](c3ccccc3)[C@H](c3ccccc3)N2[C@@H]1c1ccccc1OCCO)C(=O)OC", "ASSIGNED CLASS": "NO"}
{"COMPOUND": "COC(=O)[C@H](Cc1ccccc1)N1CC2=C[C@@H](C3CC3)n3c(=O)n(C)c(=O)n3[C@H]2[C@@H]1[C@@H](O)Cc1ccccc1", "ASSIGNED CLASS": "NO"}
{"COMPOUND": "[N-]=[N+]=Nc1ccccc1[C@@H]1OC(c2ccc(OCCCO)cc2)=N[C@]1(Cc1ccccc1)C(=O)N1CCOCC1", "ASSIGNED CLASS": "YES"}
{"COMPOUND": "COCCCNC(=O)[C@@]1(C)c2ccccc2C(=O)N(C(C)C)[C@H]1c1ccc(CO)cc1", "ASSIGNED CLASS": "NO"}
{"COMPOUND": "CC1CC/C=C\\[C@H]2OC34C=CCN(C(C)(C)C)C(=O)[C@H]3N(CCO)C(=O)[C@@H]4C2C(=O)O1 (some centres not stated)", "ASSIGNED CLASS": "YES"}

Data origin: PubChem BioAssay
